- measurement-target: T1, human ITGa3 protein (human, UniProt P26006 33-991)
- T1 chain: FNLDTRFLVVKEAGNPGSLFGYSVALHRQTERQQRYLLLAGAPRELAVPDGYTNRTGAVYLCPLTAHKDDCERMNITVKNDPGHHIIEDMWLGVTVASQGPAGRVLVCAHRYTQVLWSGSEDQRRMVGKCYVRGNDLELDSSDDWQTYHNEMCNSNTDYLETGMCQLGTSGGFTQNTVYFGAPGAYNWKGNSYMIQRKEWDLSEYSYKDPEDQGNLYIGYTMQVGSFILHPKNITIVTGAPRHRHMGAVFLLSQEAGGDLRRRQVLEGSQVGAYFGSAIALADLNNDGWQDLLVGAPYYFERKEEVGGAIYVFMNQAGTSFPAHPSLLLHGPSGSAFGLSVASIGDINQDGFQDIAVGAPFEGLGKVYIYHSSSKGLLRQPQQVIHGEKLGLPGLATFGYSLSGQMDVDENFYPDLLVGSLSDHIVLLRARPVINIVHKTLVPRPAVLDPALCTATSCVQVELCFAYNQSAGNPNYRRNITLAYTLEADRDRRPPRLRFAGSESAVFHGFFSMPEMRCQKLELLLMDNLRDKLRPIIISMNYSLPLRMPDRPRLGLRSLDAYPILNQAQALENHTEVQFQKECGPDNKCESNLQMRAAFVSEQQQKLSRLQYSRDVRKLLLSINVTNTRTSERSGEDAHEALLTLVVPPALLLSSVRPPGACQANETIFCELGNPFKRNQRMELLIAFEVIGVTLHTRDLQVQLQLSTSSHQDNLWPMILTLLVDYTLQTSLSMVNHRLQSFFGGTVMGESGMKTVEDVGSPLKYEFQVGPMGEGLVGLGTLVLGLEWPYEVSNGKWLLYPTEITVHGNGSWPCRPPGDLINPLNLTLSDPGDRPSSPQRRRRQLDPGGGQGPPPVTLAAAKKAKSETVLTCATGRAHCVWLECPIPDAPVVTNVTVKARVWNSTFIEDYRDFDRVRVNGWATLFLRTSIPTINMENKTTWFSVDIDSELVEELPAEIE
- method-description: ELISA; apparent Kd
reported-property: Kd
Entry format: amount then unit.

The binder identified as Lc2/Hc1 (antibody, V domains shown) VH: QVQLVQSGAEVKKPGSSVKVSCKASGYTFTEYIIHWVRQAPGQGLEWIGWFYPESGSVKYNETFKGRATLTADKSTSTAYMELSSLRSEDTAVYYCARHEERDYYGYYAMDYWGQGTTVTVSS VL: DIQMTQSPSSLSASVGDRVIITCSASSSISSNYLHWYQQKPGKVPKLLIYRTSNLASGVPSRFSGSGSGTDYTLTISSLQPEDVATYYCQQGSSIPRFTSGGGTKVEIK registered its Kd at 180 pM

The binder identified as Lc1/Hc1 (antibody, V domains shown) VH: QVQLVQSGAEVKKPGSSVKVSCKASGYTFTEYIIHWVRQAPGQGLEWIGWFYPESGSVKYNETFKGRATLTADKSTSTAYMELSSLRSEDTAVYYCARHEERDYYGYYAMDYWGQGTTVTVSS VL: DIQMTQSPSSLSASVGDRVTITCSASSSISSNYLHWYQQKPGKVPKLLIYRTSNLASGVPSRFSGSGSGTDYTLTISSLQPEDVATYYCQQGSSIPRFTSGGGTKVEIK registered its Kd at 180 pM

The binder identified as Lc2/Hc1A (antibody, V domains shown) VH: QVQLVQSGAEVKKPGSSVKVSCKASGYTFTEYIIHWVRQAPGQGLEWIGWFYPESGSVKYNEAFKGRATLTADKSTSTAYMELSSLRSEDTAVYYCARHEERDYYGYYAMDYWGQGTTVTVSS VL: DIQMTQSPSSLSASVGDRVIITCSASSSISSNYLHWYQQKPGKVPKLLIYRTSNLASGVPSRFSGSGSGTDYTLTISSLQPEDVATYYCQQGSSIPRFTSGGGTKVEIK registered its Kd at 230 pM
